Assay: DPPH radical scavenging assay
Assay type: biochemical
Conditions: 40 µM, 517 nm

- molecule: "[Ni+2].[O-]c1ccccc1N=Cc1ccc(N2CCOCC2)cc1.[O-]c1ccccc1N=Cc1ccc(N2CCOCC2)cc1.c1ccc(-c2ccccn2)nc1"
  unit tag: "%"
  % Inhibition, DPPH: 13.08
- molecule: "[Co+2].[O-]c1ccccc1N=Cc1ccc(N2CCOCC2)cc1.[O-]c1ccccc1N=Cc1ccc(N2CCOCC2)cc1.c1ccc(-c2ccccn2)nc1"
  unit tag: "%"
  % Inhibition, DPPH: 14.20
- molecule: "O=C1O[C@H]([C@@H](O)CO)C(O)=C1O [Ascorbic acid, ascorbic acid, reference compound]"
  unit tag: "%"
  % Inhibition, DPPH: 41.63
- molecule: "Oc1ccccc1N=Cc1ccc(N2CCOCC2)cc1"
  unit tag: "%"
  % Inhibition, DPPH: "09.45"
- molecule: "[Mn+2].[O-]c1ccccc1N=Cc1ccc(N2CCOCC2)cc1.[O-]c1ccccc1N=Cc1ccc(N2CCOCC2)cc1.c1ccc(-c2ccccn2)nc1"
  unit tag: "%"
  % Inhibition, DPPH: 11.16

* * *

Test system: Candida albicans
Experiment: Agar disc diffusion, strain I
Format: cell-based
Details: control 6 mm

- molecule: "[Mn+2].[O-]c1ccccc1N=Cc1ccc(N2CCOCC2)cc1.[O-]c1ccccc1N=Cc1ccc(N2CCOCC2)cc1.c1ccc(-c2ccccn2)nc1 [(1)]"
  Diameter of clear zone inhibition, mm: 14
- molecule: "[Ni+2].[O-]c1ccccc1N=Cc1ccc(N2CCOCC2)cc1.[O-]c1ccccc1N=Cc1ccc(N2CCOCC2)cc1.c1ccc(-c2ccccn2)nc1 [(3)]"
  Diameter of clear zone inhibition, mm: 16
- molecule: "CC(=O)N1CCN(c2ccc(OCC3COC(Cn4ccnc4)(c4ccc(Cl)cc4Cl)O3)cc2)CC1 (stereo not shown) [Ketoconazole, ketoconazole, reference compound]"
  Diameter of clear zone inhibition, mm: 18
- molecule: "Oc1ccccc1N=Cc1ccc(N2CCOCC2)cc1 [(HL), 2-(4-morpholinobenzylideneamino)phenol]"
  Diameter of clear zone inhibition, mm: 10

* * *

Molecular target: BSA (Bos taurus, UniProt P02769)
Assay: BSA fluorescence quenching titration
Assay type: binding, bovine
Settings: BSA, T = 298 K
Form field: Gibb's free energy change (SV method II), BSA (one value per entry).
measured quantity: Gibb's free energy change (SV method II), BSA (kJ/M)

- compound smiles: "[Ni+2].[O-]c1ccccc1N=Cc1ccc(N2CCOCC2)cc1.[O-]c1ccccc1N=Cc1ccc(N2CCOCC2)cc1.c1ccc(-c2ccccn2)nc1"
  obs value: -26.9
- compound smiles: "Oc1ccccc1N=Cc1ccc(N2CCOCC2)cc1"
  obs value: -23.0
- compound smiles: "[Co+2].[O-]c1ccccc1N=Cc1ccc(N2CCOCC2)cc1.[O-]c1ccccc1N=Cc1ccc(N2CCOCC2)cc1.c1ccc(-c2ccccn2)nc1"
  obs value: -27.0
- compound smiles: "[Mn+2].[O-]c1ccccc1N=Cc1ccc(N2CCOCC2)cc1.[O-]c1ccccc1N=Cc1ccc(N2CCOCC2)cc1.c1ccc(-c2ccccn2)nc1"
  obs value: -24.5

* * *

Target: BSA (Bos taurus, UniProt P02769)
Experiment: FRET computation, donor (BSA)–acceptor (compound)
Format: binding, bovine
Item-by-item account of E (efficiency of energy transfer)
measured quantity: E (efficiency of energy transfer)

- compound smiles: "Oc1ccccc1N=Cc1ccc(N2CCOCC2)cc1"
  obs value: 0.3462
- compound smiles: "[Mn+2].[O-]c1ccccc1N=Cc1ccc(N2CCOCC2)cc1.[O-]c1ccccc1N=Cc1ccc(N2CCOCC2)cc1.c1ccc(-c2ccccn2)nc1"
  obs value: 0.4462
- compound smiles: "[Ni+2].[O-]c1ccccc1N=Cc1ccc(N2CCOCC2)cc1.[O-]c1ccccc1N=Cc1ccc(N2CCOCC2)cc1.c1ccc(-c2ccccn2)nc1"
  obs value: 0.5692
- compound smiles: "[Co+2].[O-]c1ccccc1N=Cc1ccc(N2CCOCC2)cc1.[O-]c1ccccc1N=Cc1ccc(N2CCOCC2)cc1.c1ccc(-c2ccccn2)nc1"
  obs value: 0.5000
